# koff values compiled below
TARGET: T1, cSNK:BSA conjugate (bovine, head-to-tail cyclized; conjugated to BSA carrier)
T1 construct: also called BSA-cSNK
T1 sequence (P02769 25-607 limits assumed): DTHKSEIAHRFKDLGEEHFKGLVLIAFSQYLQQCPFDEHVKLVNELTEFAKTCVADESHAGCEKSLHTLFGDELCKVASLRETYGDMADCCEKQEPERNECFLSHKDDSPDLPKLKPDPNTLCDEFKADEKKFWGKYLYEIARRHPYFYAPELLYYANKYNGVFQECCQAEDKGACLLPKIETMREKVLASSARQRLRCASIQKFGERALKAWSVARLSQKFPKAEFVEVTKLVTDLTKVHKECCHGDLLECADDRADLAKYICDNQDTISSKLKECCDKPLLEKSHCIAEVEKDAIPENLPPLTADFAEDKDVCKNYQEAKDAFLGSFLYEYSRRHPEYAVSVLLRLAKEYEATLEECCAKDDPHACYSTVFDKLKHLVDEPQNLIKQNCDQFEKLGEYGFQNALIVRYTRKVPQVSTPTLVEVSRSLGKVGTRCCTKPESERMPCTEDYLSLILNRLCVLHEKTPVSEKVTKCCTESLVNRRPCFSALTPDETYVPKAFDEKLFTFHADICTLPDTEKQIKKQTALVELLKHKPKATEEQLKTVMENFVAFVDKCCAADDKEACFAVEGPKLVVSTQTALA
ASSAY: BLI 2:1 fit, site 1; 100 nM row
# unit: s⁻¹ | format: bare number

A selection of reference data follows.
- BINDER: "murine monoclonal antibody 5E3 (antibody, V domains shown, mouse antibody of the 5E3 hybridoma; also called murine 5E3; m5E3) VH: QVQLQQSGPELVKPGASVRISCKASGYIFTSYYIQWVIHRPGQGLEWIGWIYPGNVNTKYNEKFKGKATLTADKSSSTAYMQLSRLTSEDSAVYFCARMDYEAHYWGQGTTLTVSS VL: DIQMTQSPSSLSASLGERVSLTCRASQEISGYLTWLQQKPDGTIKRLIYAASTLDSGVPKRFSGSRSGSDYSLTISSLESEDFADYNCLQYANYPRTFGGGTKLEIK"
  READOUT_KIND: "koff"
  ASSAY_VALUE: 0.000428
- BINDER: "hu5E3-IgG4 (antibody, V domains shown, human IgG4/kappa; also called humanized 5E3 IgG4) VH: QVQLQQSGPEVKKPGASVKISCKASGYIFTSYYIQWVIHAPGQGLEWIGWIYPGNVNTKYNEKFKGKATLTADKSSSTAYMELSSLTSEDTAVYFCARMDYEAHYWGQGTTVTVSS VL: DIQMTQSPSSLSASVGDRVTITCRASQEISGYLTWLQQKPEGAIKRLIYAASTLDSGVPKRFSGSRSGSDYSLTISSLQPEDFATYNCLQYANYPRTFGGGTKLEIK"
  READOUT_KIND: "koff"
  ASSAY_VALUE: 0.00055

Would you kindly look at the next entry?
Per the records, this binder ( hu5E3-IgG2 (antibody, V domains shown, human IgG2/kappa; also called humanized 5E3 IgG2) VH: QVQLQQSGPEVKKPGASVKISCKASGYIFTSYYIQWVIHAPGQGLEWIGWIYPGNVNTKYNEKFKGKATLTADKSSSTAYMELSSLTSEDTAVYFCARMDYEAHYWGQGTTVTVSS VL: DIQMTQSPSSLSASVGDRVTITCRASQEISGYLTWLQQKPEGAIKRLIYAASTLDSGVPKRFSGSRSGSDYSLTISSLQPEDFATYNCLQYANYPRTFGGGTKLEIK ) has koff equal to 0.000762

From: patent US20170008955A1
